test system: A498 renal; assay: NCI-60 one-dose screen, 48 h; settings: 10 µM
About 83,000 compounds went through this panel and 20% of them were active in at least one assay; those are over-represented in the sample as a whole. Active and inactive are the calls of the source. Rule for the calls: active = growth percent below 10; inactive = the rest.
I would appreciate it if you answered using one of these outcomes: 1 (yes) = active, 0 (no) = inactive

input: Name the outcome recorded for COc1cccc(C(N)=Nc2ccc(OCCCCCCn3cncn3)cc2)c1 in the assay.
output: 0 (no)

input: Can you look up the reported call for CC1(c2ccccc2)NC(=O)N(CC(=O)Nc2ccc(C(=O)/C=C/c3ccccc3)cc2)C1=O (centres undefined) for me?
output: 0 (no)

input: Please state the recorded outcome for this compound: COc1ccc2c(c1)N=C(C(=O)O)/C2=C/c1sc(Nc2ccc(O)cc2)nc1O
output: 0 (no)

input: Kindly provide the recorded test outcome for the following compound: Cc1cccc2cc(-c3cc(-c4ccccc4)nc(=S)[nH]3)c(Cl)nc12
output: 0 (no)

input: Recorded test outcome, item Cc1ccc(-c2nc3ccc(C(=O)N=Nc4c(O)[nH]c5ccc([N+](=O)[O-])cc45)cc3[nH]2)cc1
output: 0 (no)

input: What is the recorded call for this compound in the test? O=C1Nc2cc(-c3ccc(NC(=O)c4cccc([N+](=O)[O-])c4)cc3)ccc2/C1=C/c1ccc[nH]1
output: 0 (no)

input: Hi team, can someone confirm the assay call for O=C(Nc1cccc(C(F)(F)F)c1)c1cncc(C#Cc2cnc3cccnn23)c1 ?
output: 0 (no)

input: For O=C(CSc1nnc(-c2c[nH]c3ccccc23)n1-c1ccccc1)c1ccc(Cl)cc1 , what call appears in the results of this test?
output: 0 (no)

input: Write down the call the test reported for this compound. Item: Nc1nc(-c2ccccc2)cs1
output: 0 (no)

input: Please indicate how the test categorized O=C1Nc2cc(Cl)ccc2/C1=C/c1cccc(OCc2ccc(Br)cc2F)c1 .
output: 0 (no)

input: What was the test verdict on CC(=O)NS(=O)(=O)c1ccc(NC(=O)CSC2=NC(c3ccccc3)C(C(C)=O)=C(C)N2)cc1 (centres undefined) ?
output: 0 (no)
